- ASSAY EXPLANATION: Half life in Sprague-Dawley rat at 1 mg/kg, iv measured upto 24 hrs by LC-MS analysis
- Type: ADME, organism-based
- APPLIED CONDITIONS: in vivo
ENDPOINT LABEL: half-life (h)
API: value field is a number in h; no unit string.

Given the compound O=[N+]([O-])c1ccc(N2CCN(c3ccc(S(=O)(=O)NCc4ccccn4)cc3[N+](=O)[O-])CC2)cc1 , what is its reported half-life?
1.8

====

- ASSAY EXPLANATION: Tmax in Sprague-Dawley rat at 10 mg/kg, po measured upto 24 hrs by LC-MS analysis
- Type: ADME, organism-based
- APPLIED CONDITIONS: in vivo
ENDPOINT LABEL: Tmax (h)
Numbers only here, please. The scale is h.

Suppose we examine the molecule O=[N+]([O-])c1ccc(N2CCN(c3ccc(S(=O)(=O)NCc4ccccn4)cc3[N+](=O)[O-])CC2)cc1 ; what Tmax value has been reported?
2.8

====

- ASSAY EXPLANATION: Clearance in Sprague-Dawley rat at 1 mg/kg, iv measured upto 24 hrs by LC-MS analysis
- Format: ADME, organism-based
- APPLIED CONDITIONS: in vivo
ENDPOINT LABEL: clearance (mL/min/kg)
Numeric answer only, unit mL/min/kg assumed.

Can you look up the measured clearance of O=[N+]([O-])c1ccc(N2CCN(c3ccc(S(=O)(=O)NCc4ccccn4)cc3[N+](=O)[O-])CC2)cc1 for me?
15

====

- ASSAY EXPLANATION: Oral bioavailability in Sprague-Dawley rat at 10 mg/kg measured upto 24 hrs by LC-MS analysis
- Format: ADME, organism-based
- APPLIED CONDITIONS: in vivo
ENDPOINT LABEL: bioavailability (%)
Field: numeric (%). Do not append units.

Sample O=[N+]([O-])c1ccc(N2CCN(c3ccc(S(=O)(=O)NCc4ccccn4)cc3[N+](=O)[O-])CC2)cc1 — what was its bioavailability?
10.6

====

- ASSAY EXPLANATION: Half life in Sprague-Dawley rat at 10 mg/kg, po measured upto 24 hrs by LC-MS analysis
- Type: ADME, organism-based
- APPLIED CONDITIONS: in vivo
ENDPOINT LABEL: half-life (min)
Your answer should be a plain number; it is taken to be in min.

Consider the compound O=[N+]([O-])c1ccc(N2CCN(c3ccc(S(=O)(=O)NCc4ccccn4)cc3[N+](=O)[O-])CC2)cc1 and give its measured half-life.
426

====

- ASSAY EXPLANATION: Apparent volume of distribution in Sprague-Dawley rat at 10 mg/kg, po measured upto 24 hrs by LC-MS analysis
- Format: ADME, organism-based
- APPLIED CONDITIONS: in vivo
ENDPOINT LABEL: Vz (L/kg)
Answer format: numeric, L/kg implied, no suffix.

So what's the measured Vz for this one? O=[N+]([O-])c1ccc(N2CCN(c3ccc(S(=O)(=O)NCc4ccccn4)cc3[N+](=O)[O-])CC2)cc1
80

====

- ASSAY EXPLANATION: Apparent volume of distribution in Sprague-Dawley rat at 1 mg/kg, iv measured upto 24 hrs by LC-MS analysis
- Assay type: ADME, organism-based
- APPLIED CONDITIONS: in vivo, read-out: Vz
ENDPOINT LABEL: Vd (L/kg)
Numeric only. Scale: L/kg

For the compound O=[N+]([O-])c1ccc(N2CCN(c3ccc(S(=O)(=O)NCc4ccccn4)cc3[N+](=O)[O-])CC2)cc1 , what Vd is on record?
2.3

====

- ASSAY EXPLANATION: Tmax in Sprague-Dawley rat at 1 mg/kg, iv measured upto 24 hrs by LC-MS analysis
- Format: ADME, organism-based
- APPLIED CONDITIONS: in vivo
ENDPOINT LABEL: Tmax (min)
The reply should contain only the number, in min.

What value of measured Tmax is listed for O=[N+]([O-])c1ccc(N2CCN(c3ccc(S(=O)(=O)NCc4ccccn4)cc3[N+](=O)[O-])CC2)cc1 ?
8.4

====

- ASSAY EXPLANATION: AUC (0 to t) in Sprague-Dawley rat at 10 mg/kg, po measured upto 24 hrs by LC-MS analysis
- Type: ADME, organism-based
- APPLIED CONDITIONS: in vivo
ENDPOINT LABEL: AUC(0-t) at 24 h (ng·h/mL)
Please reply with the bare figure in ng·h/mL and do not write the unit itself.

GET /values?readout=AUC(0-t) at 24 h&item= O=[N+]([O-])c1ccc(N2CCN(c3ccc(S(=O)(=O)NCc4ccccn4)cc3[N+](=O)[O-])CC2)cc1
1060

====

- ASSAY EXPLANATION: Cmax in Sprague-Dawley rat at 1 mg/kg, iv measured upto 24 hrs by LC-MS analysis
- Type: ADME, organism-based
- APPLIED CONDITIONS: in vivo
ENDPOINT LABEL: Cmax
Quote the value and follow it with the unit of measurement.

Given O=[N+]([O-])c1ccc(N2CCN(c3ccc(S(=O)(=O)NCc4ccccn4)cc3[N+](=O)[O-])CC2)cc1 , state its recorded Cmax.
1320 ng/mL
